MIC values, listed per item
# Test system: MSSE ATCC 12228
# TEST_DETAILS: MIC, agar dilution, MSSE ATCC 12228
# Assay type: cell-based, S. epidermidis
# TEST_SETTINGS: Staphylococcus epidermidis, ATCC12228; MSSE ATCC 12228; read-out: MIC

{"MOLECULE": "COc1ccc2c(c[n+]3c4c2ccc2c(OC)c(OC)cc(c24)CC3)c1O", "MIC": "> 64 µg/mL"}
{"MOLECULE": "COc1ccc2c(c[n+]3ccc4cc5c(c6c(Cc7ccccc7C#N)cc2c3c46)OCO5)c1O [13m]", "MIC": "> 64 µg/mL"}
{"MOLECULE": "COc1ccc2c(c[n+]3c4c2ccc2c5c(cc(c24)CC3)OCO5)c1OC", "MIC": "> 64 µg/mL"}
